Quick reference for IC50 among some molecules
System: Kuramochi cells labeled with mApple-H2B
assay.protocol: IncuCyte Cell Proliferation Assay
Format: cell-based
test.parameters: 72 h

Previously resolved entries follow.
{"columns": ["molecule", "measured.parameter", "result"],
 "data": [
  ["Cc1nc(C)c(C(=O)N2C[C@@H](C(=O)N[C@H](C(=O)N3CCC(OC(F)(F)F)CC3)[C@@H](C)OCC34CCC(CC3)OC4)C3(C2)CN(C(=O)[C@H]2CC2(C)C)C3)s1", "IC50", "500 to 5000 nM"],
  ["C[C@@H](OCc1ccccc1)[C@H](NC(=O)[C@@H]1CN(C(=O)c2cnn(Cc3ccccc3)c2)CC12CN(C(=O)[C@H]1CC1(C)C)C2)C(=O)N1CCC(F)(F)CC1", "IC50", "500 to 5000 nM"],
  ["CNC(=O)[C@@H](NC(=O)[C@@H]1CN(C(=O)c2sc(C)nc2C)CC12CN(C(=O)[C@H]1CC1(C)C)C2)[C@@H](C)OCC1CCCCC1 [I-213A]", "IC50", "500 to 5000 nM"],
  ["COC[C@H]1CCCN(C(=O)[C@@H](NC(=O)[C@@H]2CN(C(=O)c3cncs3)CC23CN(C(=O)[C@H]2CC2(C)C)C3)[C@@H](C)OCC2CCC3(CCC3)CC2)C1", "IC50", "≤ 500 nM"],
  ["CNC(=O)[C@@H](NC(=O)[C@@H]1CN(C(=O)c2cncs2)CC12CN(C(=O)[C@H]1CC1(C)C)C2)[C@@H](C)OCC12CCC(CC1)CC2", "IC50", "≤ 500 nM"],
  ["CNC(=O)C(NC(=O)[C@@H]1CN(C(=O)c2cncs2)CC12CN(C(=O)C(C)(C)C1CC1)C2)c1cccc(C2CCCCC2)n1 (stereo partly shown)", "IC50", "500 to 5000 nM"]
]}

QUERY: Please look up its IC50: C[C@@H](OCC1CCCCC1)[C@H](NC(=O)[C@@H]1CN(C(=O)c2cncs2)CC12CN(C(=O)[C@H]1CC1(C)C)C2)C(=O)N1CCOCC1
RESULT: ≤ 500 nM

QUERY: And C[C@@H](OCC1CCCCC1)[C@H](NC(=O)[C@@H]1CN(C(=O)c2cnn(Cc3ccccc3)c2)CC12CN(C(=O)[C@H]1CC1(C)C)C2)C(=O)N1CCC(n2cccn2)CC1 ?
RESULT: ≤ 500 nM

QUERY: And CNC(=O)[C@@H](NC(=O)[C@@H]1CN(C(=O)c2cnn(Cc3ccccc3)c2)CC12CN(C(=O)[C@H]1CC1(C)C)C2)C(C)(C)OCc1ccccc1 ?
RESULT: 5000 to 20000 nM

QUERY: And CNC(=O)[C@@H](NC(=O)[C@@H]1CN(C(=O)c2cnn(Cc3ccc(C(=O)O)cc3)c2)CC12CN(C(=O)[C@H]1CC1(C)C)C2)[C@@H](C)OCc1ccccc1 ?
RESULT: > 20000 nM
